Catalogue of compounds with associated viability
Assay: drug combination growth inhibition, ovarian cancer – cell-based, oncology-focused library, rucaparib conditional, profiling panel (AID 1508598)
Settings: patient-derived ovarian cancer cells, CellTiter-Glo viability, 144 h; at 0.0195 µM; OCI-P5x cells; without rucaparib; stronger effect = lower value
Dear colleague, please return just the value in %, with no unit written.

See these solved cases before continuing.
structure=Nc1ncn([C@@H]2O[C@H](CO)[C@@H](O)[C@@H]2O)c(=O)n1 meas_value=119
structure=O=C1[C@H](CC[C@H](O)c2ccc(F)cc2)[C@H](c2ccc(O)cc2)N1c1ccc(F)cc1 meas_value=106
structure=COc1ccc(C2=N[C@@H](c3ccc(Cl)cc3)[C@H](c3ccc(Cl)cc3)N2C(=O)N2CCNC(=O)C2)c(OC(C)C)c1 meas_value=95.8
structure=C[C@@H]1C[C@H]2[C@@H]3CCC4=CC(=O)C=C[C@]4(C)[C@]3(F)[C@H](O)C[C@]2(C)[C@]1(O)C(=O)CO meas_value=114
structure=C[C@@]1(c2nc3c(C(N)=O)cccc3[nH]2)CCCN1 meas_value=95.2

Hello, please tell me recorded viability for this one: `COc1cccc(-c2cc(F)ccc2[C@H]2Cc3nc(N)nc(C)c3C(=O)N2)n1`
8.17

Hello, please tell me recorded viability for this one: `O=C(O)c1cc(I)ccc1NC(=O)[C@H](Cc1ccccc1)NCc1ccccc1`
99.8

Hello, please tell me recorded viability for this one: `CC(=O)[C@]1(O)Cc2c(O)c3c(c(O)c2[C@H](O[C@H]2C[C@H](N)[C@H](O)[C@H](C)O2)C1)C(=O)c1ccccc1C3=O`
36.9

Hello, please tell me recorded viability for this one: `CC(C)NCCCn1c(Sc2cc3c(cc2I)OCO3)nc2c(N)ncnc21`
97.9
